biological target: T1, Soluble recombinant human urokinase receptor (suPAR) (human, UniProt Q03405 23-299, limits assumed, biotinylated in the plate assays (sites not given)); assay: competition with phage displaying peptide 9 for soluble uPAR
T1 construct: Only called a soluble truncated form of the urokinase receptor; also called soluble uPAR; biotinylated suPAR
T1 sequence (Q03405 23-299 limits assumed): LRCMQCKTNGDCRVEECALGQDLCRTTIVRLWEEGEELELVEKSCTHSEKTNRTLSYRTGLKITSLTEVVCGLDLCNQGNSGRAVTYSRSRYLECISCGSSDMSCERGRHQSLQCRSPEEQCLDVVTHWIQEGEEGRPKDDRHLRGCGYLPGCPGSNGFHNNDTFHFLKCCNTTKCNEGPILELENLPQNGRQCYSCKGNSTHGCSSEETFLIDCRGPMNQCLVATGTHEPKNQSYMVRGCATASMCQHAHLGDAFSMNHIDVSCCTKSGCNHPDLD
Square brackets hold non-standard residues; d marks the D form. Ends that are not written are not given here.
Some binders, each annotated with its measured % Inhibition at 5 uM.
// note: answer is a bare numeric in %

Please review the following examples before continuing.
- AEFFKLGP[dN]GYVYLHSA-NH2 (N-terminus assumed; SMILES CC(C)C[C@H](NC(=O)[C@H](CCCCN)NC(=O)[C@H](Cc1ccccc1)NC(=O)[C@H](Cc1ccccc1)NC(=O)[C@H](CCC(=O)O)NC(=O)[C@H](C)N)C(=O)NCC(=O)N1CCC[C@H]1C(=O)N[C@H](CC(N)=O)C(=O)NCC(=O)N[C@@H](Cc1ccc(O)cc1)C(=O)N[C@H](C(=O)N[C@@H](Cc1ccc(O)cc1)C(=O)N[C@@H](CC(C)C)C(=O)N[C@@H](Cc1c[nH]cn1)C(=O)N[C@@H](CO)C(=O)N[C@@H](C)C(N)=O)C(C)C) [Analog 89]: 13
- AEFFKLGPNGYVYLHS[dA]-NH2 (N-terminus assumed; SMILES CC(C)C[C@H](NC(=O)[C@H](CCCCN)NC(=O)[C@H](Cc1ccccc1)NC(=O)[C@H](Cc1ccccc1)NC(=O)[C@H](CCC(=O)O)NC(=O)[C@H](C)N)C(=O)NCC(=O)N1CCC[C@H]1C(=O)N[C@@H](CC(N)=O)C(=O)NCC(=O)N[C@@H](Cc1ccc(O)cc1)C(=O)N[C@H](C(=O)N[C@@H](Cc1ccc(O)cc1)C(=O)N[C@@H](CC(C)C)C(=O)N[C@@H](Cc1c[nH]cn1)C(=O)N[C@@H](CO)C(=O)N[C@H](C)C(N)=O)C(C)C) [Analog 96]: 40
- [dA]EFFKLGPNGYVYLHSA-NH2 (N-terminus assumed; SMILES CC(C)C[C@H](NC(=O)[C@H](CCCCN)NC(=O)[C@H](Cc1ccccc1)NC(=O)[C@H](Cc1ccccc1)NC(=O)[C@H](CCC(=O)O)NC(=O)[C@@H](C)N)C(=O)NCC(=O)N1CCC[C@H]1C(=O)N[C@@H](CC(N)=O)C(=O)NCC(=O)N[C@@H](Cc1ccc(O)cc1)C(=O)N[C@H](C(=O)N[C@@H](Cc1ccc(O)cc1)C(=O)N[C@@H](CC(C)C)C(=O)N[C@@H](Cc1c[nH]cn1)C(=O)N[C@@H](CO)C(=O)N[C@@H](C)C(N)=O)C(C)C) [Analog 82]: 41

Could you now look at the following binder, please?
So what does the record say about % Inhibition at 5 uM for A[dE]FFKLGPNGYVYLHSA-NH2 (N-terminus assumed; SMILES CC(C)C[C@H](NC(=O)[C@H](CCCCN)NC(=O)[C@H](Cc1ccccc1)NC(=O)[C@H](Cc1ccccc1)NC(=O)[C@@H](CCC(=O)O)NC(=O)[C@H](C)N)C(=O)NCC(=O)N1CCC[C@H]1C(=O)N[C@@H](CC(N)=O)C(=O)NCC(=O)N[C@@H](Cc1ccc(O)cc1)C(=O)N[C@H](C(=O)N[C@@H](Cc1ccc(O)cc1)C(=O)N[C@@H](CC(C)C)C(=O)N[C@@H](Cc1c[nH]cn1)C(=O)N[C@@H](CO)C(=O)N[C@@H](C)C(N)=O)C(C)C) [Analog 83] ?
59

Where do the numbers come from? From patent US20040265797A1.
